Measured IC50 on V1a receptors (Homo sapiens) follows.
Sequence (P37288 whole entry): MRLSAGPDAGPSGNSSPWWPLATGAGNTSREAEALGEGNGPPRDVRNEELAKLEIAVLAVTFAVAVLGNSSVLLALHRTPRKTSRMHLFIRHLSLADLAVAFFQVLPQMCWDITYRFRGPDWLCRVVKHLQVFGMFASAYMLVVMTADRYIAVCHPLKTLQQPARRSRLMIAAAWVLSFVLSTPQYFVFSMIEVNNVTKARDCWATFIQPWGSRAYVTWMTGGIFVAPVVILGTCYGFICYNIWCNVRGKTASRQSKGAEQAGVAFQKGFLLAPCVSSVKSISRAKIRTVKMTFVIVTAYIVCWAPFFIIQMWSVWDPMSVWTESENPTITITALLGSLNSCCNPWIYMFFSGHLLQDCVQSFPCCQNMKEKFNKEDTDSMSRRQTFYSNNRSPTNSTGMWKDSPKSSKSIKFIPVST
readout: IC50 (nM)

molecule="CCOc1ccc2c(c1)C(C)(c1ccccc1Cl)C(=O)N2S(=O)(=O)c1ccc(C(=O)NC(C)(C)CO)cc1 (stereo not drawn) [Example 72]" readout=IC50 relation_operator=> measured_result=1000
molecule="CCNC(=O)c1ccc(Cl)c(C2(C)C(=O)N(S(=O)(=O)c3ccc(C(=O)NC(C)(C)C)cc3OC)c3ccc(OCC)cc32)c1 (stereo not drawn) [Example 21]" readout=IC50 relation_operator== measured_result=340
molecule="CCOc1ccc2c(c1)C(C)(c1cc(NC(=O)C3CCN(C)CC3)ccc1Cl)C(=O)N2S(=O)(=O)c1ccc(C(=O)NC(C)(C)C)cc1OC (stereo not drawn) [Example 62]" readout=IC50 relation_operator== measured_result=630

###

Counter-ions that a name gives are not always drawn.
melting point strictly less than 90 °C = Condition met. Otherwise Condition not met.

molecule="CC(C)(C)NC(=O)c1ccc(S(=O)(=O)N2C(=O)C(C)(c3ccccc3Cl)c3cc(OCC(F)(F)F)ccc32)cc1 (stereo not drawn)" category="Condition not met"
molecule="CCOc1ccc2c(c1)C(C)(c1cc(C(=O)O)ccc1Cl)C(=O)N2S(=O)(=O)c1ccc(C(=O)NC(C)(C)C)cc1OC (stereo not drawn)" category="Condition not met"
molecule="CCOc1ccc2c(c1)C(C)(c1ccccc1)C(=O)N2S(=O)(=O)c1ccc(C(=O)NC(C)(C)C)cc1OC (single isomer, unassigned)" category="Condition not met"
molecule="CCOc1ccc2c(c1)C(C)(c1cc(C(=O)NCCN)ccc1Cl)C(=O)N2S(=O)(=O)c1ccc(C(=O)NC(C)(C)C)cc1OC (stereo not drawn) (as salt: hydrochloride)" category="Condition not met"
molecule="CCOc1ccc2c(c1)C(C)(c1cccc(OCCCN(C)C)c1)C(=O)N2S(=O)(=O)c1ccc(C(=O)NC(C)(C)C)cc1 (stereo not drawn)" category="Condition met"

###

target: human oxytocin receptors (Homo sapiens, UniProt P30559)
Sequence (P30559 1-389): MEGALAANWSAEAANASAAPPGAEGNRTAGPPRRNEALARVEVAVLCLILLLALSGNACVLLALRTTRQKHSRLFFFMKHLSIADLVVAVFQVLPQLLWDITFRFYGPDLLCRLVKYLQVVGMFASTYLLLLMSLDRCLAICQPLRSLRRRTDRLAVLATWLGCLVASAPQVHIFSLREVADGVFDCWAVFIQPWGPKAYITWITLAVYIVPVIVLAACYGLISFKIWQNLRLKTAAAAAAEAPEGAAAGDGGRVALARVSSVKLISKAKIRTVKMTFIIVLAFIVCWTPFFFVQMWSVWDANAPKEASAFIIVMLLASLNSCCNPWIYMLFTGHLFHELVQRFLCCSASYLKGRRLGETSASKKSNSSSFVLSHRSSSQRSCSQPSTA
readout: IC50 (nM)

compound="COc1cc(C(=O)NC(C)(C)C)ccc1S(=O)(=O)N1C(=O)C(C)(c2ccccc2Cl)c2cc(O)ccc21 (centres unmarked)" units_symbol=nM relation_operator== measured_result=130
compound="CCNC(=O)c1ccc(Cl)c(C2(C)C(=O)N(S(=O)(=O)c3ccc(C(=O)NC(C)(C)C)cc3OC)c3ccc(OCC)cc32)c1 (centres unmarked)" units_symbol=nM relation_operator=> measured_result=1000
compound="CCOc1ccc2c(c1)C(C)(c1cc(C(=O)NCCN3CCOCC3)ccc1Cl)C(=O)N2S(=O)(=O)c1ccc(C(=O)NC(C)(C)C)cc1OC (centres unmarked)" units_symbol=nM relation_operator== measured_result=350
compound="CCOc1ccc2c(c1)C(C)(c1ccccc1Cl)C(=O)N2S(=O)(=O)c1ccc(C(=O)NC(C)(C)CO)cc1 (centres unmarked)" units_symbol=nM relation_operator== measured_result=390
compound="CCOc1ccc2c(c1)C(C)(c1ccccc1Cl)C(=O)N2S(=O)(=O)c1ccc(C(=O)NC(C)(C)C)cc1 (single isomer, unassigned)" units_symbol=nM relation_operator== measured_result=140
